# PROTOCOL_NOTES: chemical genetic growth profiling, strain panel (AID 1159580);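 further: tested at 20 µM; growth read once vehicle control cultures reached saturation at 30 °C; lower values mean less growth of the strain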
# CONDITION_SET: S. cerevisiae deletion strains, growth OD, locus YDR159W, strain sac3
The whole screen tested about 5,500 compounds, of which about 2,000 (36%) were called active. Not shown: some 18% with an inconclusive outcome. No stated cut-off is given here; in the data, active means normalized growth mostly below about 0.91 (no sharp cut-off); inconclusive means no clear call, values can overlap the other calls; inactive means mostly above about 0.92. The list shows a part of the results.
API: response.call in active, inactive

What call does the record list for CCOC(=O)C1=C(C)NC(C)=C(C(=O)OC)C1c1cccc([N+](=O)[O-])c1 (stereo unspecified) ?
inactive

Tell me the recorded outcome of this test for CCC(=O)O[C@H]1CCC2C3CCc4cc(O)ccc4C3CC[C@@]21C (stereo partly specified) .
active

meta.source: PubChem BioAssay AID1159580
